- measuredOn: Human Cbl-b (residues 40-426) (Homo sapiens (Human), UniProt Q13191)
- Sequence (Q13191 40-426): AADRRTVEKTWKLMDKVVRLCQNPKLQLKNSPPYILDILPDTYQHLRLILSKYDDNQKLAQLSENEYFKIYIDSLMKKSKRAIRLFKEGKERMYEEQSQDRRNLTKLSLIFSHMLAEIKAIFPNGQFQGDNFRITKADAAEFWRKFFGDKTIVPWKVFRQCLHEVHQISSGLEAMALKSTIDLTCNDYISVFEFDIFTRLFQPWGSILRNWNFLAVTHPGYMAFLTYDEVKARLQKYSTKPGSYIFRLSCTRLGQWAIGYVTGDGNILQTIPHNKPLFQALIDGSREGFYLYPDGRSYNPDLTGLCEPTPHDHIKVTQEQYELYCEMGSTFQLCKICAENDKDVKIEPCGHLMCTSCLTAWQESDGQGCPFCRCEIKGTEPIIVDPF
- assayNotes: Cbl-b SPR assay
- Format: binding
- condition: C-cbl SPR Kd vs Cbl-b SPR Kd
The compounds listed here are annotated with their Fold of selectivity.
Please reply with the bare figure in × and do not write the unit itself.

Here are 3 compounds together with their reported answers.
| compound | unitAbbrev | Fold of selectivity |
| --- | --- | --- |
| CC1=C[C@@](c2cc(NC3CCC3)nc(N3Cc4c(cc(CN5CCN(C)C[C@@H]5C(C)C)cc4C(F)(F)F)C3=O)c2)(c2nncn2C)C1 (single isomer, unassigned) [Compound 71] | × | 9.1 |
| CO[C@H]1C[C@](c2cccc(N3Cc4c(cc(CNCC5CC5)cc4C(F)(F)F)C3=O)c2)(c2nncn2C)C1 [Compound 415] | × | 13 |
| Cn1cnnc1[C@H](c1cccc(N2Cc3c(Cl)cc(CNC4(C)CCC4)cc3C2=O)c1)[C@H]1C[C@@H](F)C1 (single isomer, unassigned) [Compound 319] | × | 8.0 |

# Fold of selectivity of C[C@H](CC#N)Nc1cc(C2(c3nncn3C)CC3(COC3)C2)cc(N2Cc3c(cc(CNC4(C)CCC4)cc3C(F)(F)F)C2=O)n1 [Compound 192] = 5.7

# Fold of selectivity of CO[C@H]1C[C@@](c2cc(OC(C)C)cc(N3Cc4c(cc(CNC5(C)CCC5)cc4C(F)(F)F)C3=O)c2)(c2nncn2C)C1 [Compound 206] = 2.4

# Fold of selectivity of C[C@H](NC1(C)CCC1)c1cc2c(c(C(F)(F)F)c1)CN(c1cccc([C@@H](c3nncn3C)C3COC3)c1)C2=O (single isomer, unassigned) [Compound 442] = 18

# Fold of selectivity of C=C[C@@H](C)Oc1cc(N2Cc3c(cc(CNC4(C)CCC4)cc3C(F)(F)F)C2=O)cc([C@]2(c3nncn3C)C[C@@H](OC)C2)c1 [Compound 213] = 1.8

# Fold of selectivity of CO[C@H]1C[C@](c2cc(OC3CCCC3)cc(N3Cc4c(cc(CNC5(C)CCC5)cc4C(F)(F)F)C3=O)c2)(c2nncn2C)C1 [Compound 212] = 4.8

# Fold of selectivity of CO[C@H]1C[C@](c2cccc(N3Cc4c(cc(CN5CCCC5)cc4C(F)(F)F)C3=O)c2)(c2nncn2C)C1 [Compound 418] = 8.7

# Fold of selectivity of Cn1cnnc1[C@H](c1cccc(N2Cc3c(cc(CNC4(C)CCC4)cc3C(F)(F)F)C2=O)c1)C1CCOCC1.O=CO (single isomer, unassigned) [Compound 291] = 2.1

# Fold of selectivity of Cn1cnnc1[C@]1(c2cccc(N3Cc4c(Cl)cc(CNC5(C)CCC5)cc4C3=O)c2)C[C@H](Cl)C1 [Compound 452] = 3.3

# Fold of selectivity of C[C@H](NC1(C)CCC1)c1cc(Cl)c2c(c1)C(=O)N(c1cccc([C@]3(c4nncn4C)C[C@@H](F)C3)c1)C2 (single isomer, unassigned) [Compound 289] = 8.5

# Fold of selectivity of Cn1cnnc1[C@]1(c2cccc(N3Cc4c(cc(CNC5(C)CCC5)cc4C(F)(F)F)C3=O)c2)C[C@@H](C#N)C1 [Compound 24] = 8.4

# Fold of selectivity of Cn1cnnc1C1(c2cccc(N3Cc4c(cc(CNC5(C)CCC5)cc4C(F)(F)F)C3=O)c2)CCC1 [Compound 279] = 6.4

# Fold of selectivity of Cn1cnnc1[C@@](O)(c1cccc(N2Cc3c(cc(CNC4(C)CCC4)cc3C(F)(F)F)C2=O)c1)C1COC1 (single isomer, unassigned) [Compound 143] = 4.3

# Fold of selectivity of CO[C@H]1C[C@](c2cc(NC3CC3)cc(N3Cc4c(cc(CNC5(C)CCC5)cc4C(F)(F)F)C3=O)c2)(c2nncn2C)C1 [Compound 214] = 4.7

# Fold of selectivity of CO[C@H]1C[C@](c2cccc(N3Cc4c(cc(CN5CCN(C)C[C@@H]5C(C)C)cc4C(F)(F)F)C3=O)c2)(c2nncn2C)C1 [Compound 180] = 10.2

# Fold of selectivity of CC(=O)C1CC([C@H](c2cccc(N3Cc4c(cc(CNC5(C)CCC5)cc4C(F)(F)F)C3=O)c2)c2nncn2C)C1 (single isomer, unassigned) [Compound 385] = 0.7

# Fold of selectivity of CC(C)[C@H]1CN(C)CCN1Cc1cc2c(c(C(F)(F)F)c1)CN(c1cccc([C@]3(c4nncn4C)C[C@H](C#N)C3)c1)C2=O (single isomer, unassigned) [Compound 63] = 5.1

# Fold of selectivity of CO[C@H]1C[C@](c2cccc(N3Cc4c(cc(CN[C@@H]5C[C@H]5C)cc4C(F)(F)F)C3=O)c2)(c2nncn2C)C1 [Compound 502] = 14

# Fold of selectivity of C=CCNc1cc(N2Cc3c(cc(CNC4(C)CCC4)cc3C(F)(F)F)C2=O)cc([C@]2(c3nncn3C)C[C@H](OC)C2)c1 [Compound 232] = 9.2

# Fold of selectivity of CC(=O)C1CC([C@@H](c2cccc(N3Cc4c(cc(CNC5(C)CCC5)cc4C(F)(F)F)C3=O)c2)c2nncn2C)C1 (single isomer, unassigned) [Compound 383] = 7.7

# Fold of selectivity of Cn1cnnc1[C@]1(c2cccc(N3Cc4c(cc(CNC5(C)CCC5)cc4C(F)(F)F)C3=O)c2)C[C@@H](C)C1 [Compound 35] = 3.4
